# Target Or System: T1, human MSLN protein endogenously expressed on OVCAR3 tumor cells (human, UniProt Q13421 296-598)
# T1 construct: whole, on cells; Endogenous target on OVCAR3 cells; kept apart from the recombinant full-length construct; also called mesothelin
# T1 sequence (Q13421 other isoform, or with tags, fused parts or gaps): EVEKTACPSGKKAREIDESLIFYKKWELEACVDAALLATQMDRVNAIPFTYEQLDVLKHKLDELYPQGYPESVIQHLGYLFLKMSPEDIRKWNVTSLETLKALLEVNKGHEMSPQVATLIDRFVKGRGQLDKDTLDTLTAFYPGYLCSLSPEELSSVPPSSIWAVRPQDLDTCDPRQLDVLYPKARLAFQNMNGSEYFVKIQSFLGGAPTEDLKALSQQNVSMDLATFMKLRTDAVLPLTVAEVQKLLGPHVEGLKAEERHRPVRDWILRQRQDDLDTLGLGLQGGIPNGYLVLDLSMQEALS
# Assay Overview: FACS on OVCAR3 cells;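 also: flow cytometry binding of test antibodies to cells, 2 h incubation on ice, readout as cell mean fluorescence intensity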
Property: pEC50
Reminder that pEC50 means the negative base-10 logarithm of the concentration expressed in mol/L.

S009-F7.6.17 (antibody, human IgG1, kappa, V domains shown, human-murine chimeric antibody, human IgG1/kappa constant regions) VH: QVQLQQSGAELARPGASVKMSCKASGYTFTTYTMHWVKQRPGQGLEWIGYISPTGDFTKYNQKFKDKATLTTDKSSNTAFMQLSSLTSEDSAVYYCARWNGTVWFAYWGQGTLVTVSA VL: DIVMTQSQKFMSTSVGDRVTVTCKASQALGTNVAWYQQKPGQSPKVLIYSASYRYSGVPYRFAGGGSGTDFTLTITNVQSEDLAEYFCQQYNNYPLTFGAGTKLELKR; 9.00

Exercise: So what's the measured pEC50 for this one? S009-F7.21.16 (antibody, human IgG1, kappa, V domains shown, human-murine chimeric antibody, human IgG1/kappa constant regions) VH: QVQLQQPGTELVKPGASVKLSCKASGYTFTTFWMHWVKQRPGQGLEWIGGVNPTNGGTNYNEKFRTKATLTVDKSSTTADMQLSSLTSEDSAVYYCAPHYISSRPGFAYWGQGTLVTVSG VL: DIVMTQSQKFMSTSGGDRVSVTCKASQNVGTNVAWYQQKPGQSPKALIYSASYRYSGVPDRFTGSGSGTDFILTISNVQSEDLAEYFCQQYNSYPLTFGGGTKLEIKR
Key: 9.28

Exercise: So what's the measured pEC50 for this one? S009-F7.12.13 (antibody, human IgG1, kappa, V domains shown, human-murine chimeric antibody, human IgG1/kappa constant regions) VH: EVQLQQSGPELVKPGASVKIPCKASGYTFTDYNMDWVKQSHGKGLEWIGDINPNTDDTIYNQKFNGKATLTVDKSSSTAYMELRSLTSEDTAVYYCSRRLIGTGYFDVWGTGTTVTVSS VL: QIVLTQSPAIMSASPGEKVTLTCSASSSVISTYLCWYRQKPGSSPELWIYSTSNLASGVPARFSGSGSGTSYSLTISSMEAEDAASYFCHQWSNYPYTFGGGTKLGMKR
Key: 9.49

Exercise: So what's the measured pEC50 for this one? S009-F7.30.5 (antibody, human IgG1, kappa, V domains shown, human-murine chimeric antibody, human IgG1/kappa constant regions) VH: QVQLQQPKTELVKPGASVKLSCKASGYIFTTYWMHWVKQRPGQGLEWIGNVNPSNGGTMYNEKFERRATLTVDKSSSTADMQLSSLTSEDSAVYYCVPHYIGSRPGFAYWGQGTLVTVSG VL: DIVMTQSQKFMSTSVGDRVSVTCKASQNVGTNVAWYQHKPGQSPKALLYSASYRYSGVPDRFTGSGSGTDFTLTITNVQSEDLAEYFCQQYNSYPLTFGGGTKLEIKR
Key: 9.18

Exercise: So what's the measured pEC50 for this one? S009-F7.26.15 (antibody, human IgG1, kappa, V domains shown, human-murine chimeric antibody, human IgG1/kappa constant regions) VH: DVQLQESGPGLVKPSQTVFLTCTVTGISITTGNYRWSWIRQFPGNKLEWIGYIYYTGFITYNPSLTSRTTITRDTPKNQFFLEMKSLTAEDTATYYCARDDYDYDVFAYWGQGTLVTVSA VL: DIQMTQSPASLSASVGETVTITCRASGNIHNYLAWYHQKQGKSPQFLVYKAKTLADGVPSRFSGSGSGTQYSLKINRLQPEDFGSYYCQHFLSIPLTFGAGTKLELKR
Key: 9.70
